- System: Endogenous Huntingtin Protein
- PROCEDURE DETAILS: Endogenous Huntingtin Protein Assay (ELISA-based MSD electrochemiluminescence)
- Assay type: cell-based
- MEASUREMENT CONTEXT: Table 1
QUANTITY: IC50

Enquiry: Could you please provide reported IC50 for Cc1cn2nc(-c3cc(F)c4nc(C5CCNCC5)sc4c3)cc(N)c2n1 [Compound 188] ? Thanks!
Return: ≤ 100 nM

Enquiry: Quickly give me recorded IC50 for Cc1cn2nc(-c3cc(F)c4nc(OC5CCN(C)CC5)sc4c3)cc(C)c2n1 [Compound 320]
Return: ≤ 100 nM

Enquiry: Identify the reported IC50 for the following entry. Cn1cc2cc(-c3cc4sc(NC5CC(C)(C)NC(C)(C)C5)nc4cn3)cc(F)c2n1 [Compound 232]
Return: ≤ 100 nM

Enquiry: Tell me measured IC50 for Cc1cn2nc(-c3cc(F)c4nc(C5CCNCC5)sc4c3)cc(C)c2n1 [Compound 47] please.
Return: ≤ 100 nM

Enquiry: Please give the documented IC50 of Cn1cc2cc(-c3cc4sc(OC5CCNCC5)nc4cn3)cc(C#N)c2n1 [Compound 315]
Return: 100 to 500 nM

Enquiry: Report measured IC50; entry is Cc1cn2nc(-c3cc(F)c4nc(N(C)C5CCN[C@@H](C)C5)sc4c3)ccc2n1 (stereo partly drawn) [Compound 164]
Return: ≤ 100 nM

Enquiry: Output measured IC50 for this item: CN(c1nc2cnc(-c3cc(C#N)c4nn(C)cc4c3)cc2s1)C1CC(C)(C)NC(C)(C)C1 [Compound 117]
Return: ≤ 100 nM

Enquiry: Give IC50 for Cc1cn2cc(-c3cc4sc(N(C)C5CC6(C)CCC(C)(C5)N6)nc4cn3)cc(F)c2n1 (stereo not drawn) [Compound 286]
Return: ≤ 100 nM

Enquiry: Quote IC50 reported for CN(c1nc2cnc(-c3cc(F)c4nn(C)cc4c3)cc2s1)C1CCNCC1 [Compound 216] please.
Return: 100 to 500 nM

Enquiry: Specify measured IC50 for CN(c1nc2ncc(-c3cc(F)c4nn(C)cc4c3)nc2s1)C1CC(C)(C)NC(C)(C)C1 [Compound 150] .
Return: ≤ 100 nM

Enquiry: Answer with the recorded IC50 of Cc1cn2cc(-c3cc4sc(N(C)C5CC6(C)CCC(C)(C5)N6)nc4cn3)cc(C)c2n1 (stereo not drawn) [Compound 299] only.
Return: ≤ 100 nM

Enquiry: Name the recorded IC50 of the molecule listed here: Cc1cc(-c2ccc3nc(N(C)C4CC(C)NC(C)C4)sc3c2)cc2cn(C)nc12 (stereo not drawn) [Compound 175]
Return: ≤ 100 nM

Enquiry: Give me measured IC50, please, for this molecule: Oc1cc(-c2cn[nH]c2)ccc1-c1nc2cnc(C3=CCNCC3)cc2s1 [Compound 335]
Return: 1000 to 3000 nM

Enquiry: Kindly indicate its recorded IC50. Item: Cn1cc2nc(-c3cc(F)c4nc(C5CCNCC5)sc4c3)ccc2n1 [Compound 79]
Return: ≤ 100 nM

Enquiry: Give reported IC50 value for Cc1cn2nc(-c3cc(F)c4nc(OC5CC(C)(C)NC(C)(C)C5)sc4c3)cc(C)c2n1 [Compound 133]
Return: ≤ 100 nM

Enquiry: Note IC50 for the molecule shown: Cc1cn2cc(-c3cc4sc(N(C)C5CC6CCCC(C5)N6)nc4cn3)ccc2n1 (stereo not drawn) [Compound 260]
Return: ≤ 100 nM

Enquiry: Output measured IC50 for this item: Oc1cc(-c2cn[nH]c2)ccc1-c1cc2sc(N3C[C@H]4CCNC[C@H]43)nc2nn1 [Compound 386]
Return: ≤ 100 nM

Enquiry: For the molecule CN(c1nc2nnc(-c3ccc(-c4cn[nH]c4)cc3O)cc2s1)C1CNC1 [Compound 353] , report IC50.
Return: 100 to 500 nM

Enquiry: Determine from records and report IC50 for CN1CCC(c2ccc3nc(-c4ccc5nn(C)cc5c4)sc3c2)CC1 [Compound 10]
Return: 1000 to 3000 nM

Enquiry: Return the recorded IC50 value; entry: CN(c1nc2cnc(-c3cc(F)c4nn(C)cc4c3)cc2s1)C1CC2(C)CCC(C)(C1)N2 (stereo not drawn) [Compound 298]
Return: ≤ 100 nM

Enquiry: Look up IC50 of Cc1nc2c(C)cc(-c3ccc4nc(C5CCNCC5)sc4c3)cc2[nH]1 [Compound 94] and report it.
Return: ≤ 100 nM

Enquiry: Please report IC50 for the following molecule: Cc1cn2cc(-c3ccc4nc(N(C)C5CC(C)(C)NC(C)(C)C5)sc4c3)cc(C(F)(F)F)c2n1 [Compound 96]
Return: 100 to 500 nM

Enquiry: Provide IC50 value for the following molecule: Cc1cn2cc(-c3cc4sc(N(C)C5CCN(C)C(C)C5)nc4cn3)cc(C#N)c2n1 (stereo not drawn) [Compound 379]
Return: ≤ 100 nM

Enquiry: Check the records and state IC50 for Cn1cc2cc(-c3cc(F)c4nc(C5=CCNCC5)sc4c3)cc(C#N)c2n1 [Compound 102]
Return: ≤ 100 nM

Enquiry: Give the reported value of IC50 for this record: Cc1cn2nc(-c3cc(F)c4nc(C5=CCNCC5)sc4c3)cc(C)c2n1 [Compound 46]
Return: ≤ 100 nM

Enquiry: Specify IC50 for CN(c1nc2ccc(-c3ccc(-c4cn[nH]c4)cc3O)nc2s1)C1CC(C)(C)NC(C)(C)C1 [Compound 149] and stop.
Return: 100 to 500 nM

Enquiry: Answer with reported IC50 of CN(c1nc2ccc(-c3cc(F)c4nn(C)cc4c3)cc2s1)C1CC(C)(C)NC(C)(C)C1 [Compound 57]
Return: ≤ 100 nM

Enquiry: Given CN1C(C)(C)CC(Nc2nc3cnc(-c4cc(F)c5nn(C)cc5c4)cc3s2)CC1(C)C [Compound 269] , respond with its IC50.
Return: 100 to 500 nM

Enquiry: Look up and report measured IC50 for this entry: CC1(C)C=C(c2cc3sc(-c4ccc(-c5cn[nH]c5)cc4O)nc3cn2)CC(C)(C)N1 [Compound 337]
Return: 500 to 1000 nM

Enquiry: Provide only the value of recorded IC50 for Cc1cn2cc(-c3cnc4nc(OC5CC(C)(C)NC(C)(C)C5)sc4n3)cc(F)c2n1 [Compound 180]
Return: 100 to 500 nM

Enquiry: Note down IC50 recorded for Cc1cn2cc(-c3ncc4nc(N(C)C5CC6CCC(C5)N6)sc4n3)cc(F)c2n1 (stereo not drawn) [Compound 217]
Return: ≤ 100 nM

Enquiry: # return recorded IC50 for entry CN(c1nc2nnc(-c3ccc(-c4cn[nH]c4)cc3O)cc2s1)C1CCN(C2CC2)CC1 [Compound 383]
Return: ≤ 100 nM

Enquiry: Please supply the value of reported IC50 for the item Cn1cc2cc(-c3nc4ncc(C5=CCNCC5)cc4s3)ccc2n1 [Compound 19]
Return: 100 to 500 nM
